Overview of reported GI50 across a group of molecules:
System: HT-29
assay: NCI tumour cell line growth inhibition, 48 h
Calls of active or inactive are those of the source. Rule as the data show it: active = GI50 up to about 1.1 µM and inactive = higher.

molecule	target_system	measurement_label	reading
CCN(CC)CCCCC1CCN(CC(=O)N2c3ccccc3NC(=O)c3ccccc32)CC1	HT-29	GI50	46.7 µM (inactive)
CC(=O)O[C@H]1[C@H](OC(=O)CC(C)(O)CC(=O)O)C[C@]2(C)C3=C(CCC2C1(C)C)[C@]1(C)CC[C@H]([C@H]2CC[C@H](C(C)(C)O)OC2O)[C@@]1(C)[C@@H](O)C3 (stereo not given in full)	HT-29	GI50	16.3 µM (inactive)
CC1(c2nc3ccccc3[nH]2)CCC(C(N)=O)C(C)(C)O1 (stereo not given)	HT-29	GI50	> 100 µM (inactive)
O=C1C(c2c(O)[nH]c3ccc([N+](=O)[O-])cc23)=Nc2ccccc21	HT-29	GI50	> 100 µM (inactive)
COC(=O)c1ccccc1/C=C1\Cc2c(C)cc(C)cc2C1=O	HT-29	GI50	> 100 µM (inactive)

Identify GI50 associated with the molecule CC(=O)OC(C)(C)C[N+](=O)[O-]
> 100 µM (inactive)

For the molecule C=CCNC1=NC(=O)C(CC(=O)Nc2cccc(Cl)c2)S1 (stereo not given) , give its measured GI50 value.
> 100 µM (inactive)

Please list GI50 recorded for the molecule CCCCC/C=C\C=C1\C(=O)C=C[C@@H]1C/C=C\CCCC(=O)O
5.05 µM (inactive)

Report GI50 for COc1ccc(NC2Oc3cc4c(cc3C(c3cccc(OC)c3OC)C2C)OCO4)cc1 (stereo not given)
6.85 µM (inactive)

Identify GI50 associated with the molecule N#C/C(=C1\OC(=N)C(c2ccc(Cl)cc2)=C1O)c1ccc(Cl)cc1
18.9 µM (inactive)

###

System: DMS-273
assay: NCI tumour cell line growth inhibition, 48 h
Calls of active or inactive are those of the source. Cut-off read from the data, not from the text of the source: active = GI50 up to about 1.1 µM and inactive = higher.
Select the matching outcome among yes (1) for active, no (0) for inactive

Here's what some known entries look like.
compound	discrete_label
O=NN(CCF)C(=O)NC1CCSCC1	no (0)
Cn1cnc([N+](=O)[O-])c1Sc1nc2cc([N+](=O)[O-])ccc2[nH]1	no (0)
COc1ccc2nc3cc(Cl)ccc3c(Sc3ccc([N+](=O)[O-])cc3C)c2c1	no (0)
C=CCNC1=NC(=O)C(CC(=O)Nc2cccc(Cl)c2)S1 (configuration not stated)	no (0)
O=C(O)C1Cc2c([nH]c3ccccc23)C=N1 (configuration not stated)	no (0)
CCCCCC(CN1CCOCC1)C(=O)/C=C/c1ccccc1 (configuration not stated)	no (0)

// return assay outcome for CC(=O)NC1C(OCc2ccccc2)OC(CO)C(O)C1OC(C)C(=O)NC(C)C(=O)N[C@@H](CCC(=O)OCCCNC1c2ccccc2Nc2cccc([N+](=O)[O-])c21)C(N)=O (some centres not stated)
yes (1)

Could you kindly confirm the outcome this assay logged for [O-][n+]1ccccc1S [PYRITHIONE ZINC] ?
yes (1)

Please share the test call associated with CC(=O)O[C@H]1CC[C@@]2(C)C(=CC[C@@H]3C2CC[C@]2(C)C(=O)NC(=O)CC32)C1 (some centres not stated) .
no (0)

GET /call?item= COCOCC[C@@H]1CC=CC(NC(=O)OCc2ccccc2)C1/C=C/C(=O)CCC1OCCO1 (some centres not stated) returns the recorded outcome of this test.
no (0)

So what was the verdict on CCC(C(C)N1CC(=O)NC(=O)C1)N1CC(=O)NC(=O)C1 (configuration not stated) in this test?
no (0)

Which outcome did this test record for the compound [N-]=[N+]=NC1C(Cl)C(=O)NC(=O)N1[C@H]1C[C@H](O)[C@@H](CO)O1 (some centres not stated) ?
no (0)

For OCCN1CCN2C=C(C3CCCC4N(CCO)CCN34)CCC21 (configuration not stated) , which call appears in the assay record?
no (0)

Which outcome was assigned to Cn1nc(-c2ccccc2)c(N=[N+]=[N-])cc1=O in this test?
no (0)

Just curious, what result did COc1nc(O)c(N)c(NC2OC(CO)C(O)C(O)C2O)n1 (configuration not stated) get here?
no (0)

Could you check what this test reported for C=C(CO)CC(O)c1cc(OC)ccc1OC (configuration not stated) ?
no (0)

Given CC1CC2=Nc3ccccc3NC(c3ccccc3)C2=C(O)O1 (configuration not stated) , state the outcome it received in this test.
no (0)

Given CCOC(=O)/C(=C/c1cccc(OC)c1)N(CC)CC , state the outcome it received in this test.
no (0)

Could you check what this test reported for COc1cc(/C=C/C(=O)Oc2ccc(NC(C)=O)cc2)ccc1C(=O)OCc1ccccc1 ?
no (0)

Give the logged outcome of this assay for the following compound: C=C/C=C/NC(=O)OCc1ccccc1
no (0)

Which outcome was entered for the compound CCCC(N)C(=O)c1ccccc1 (configuration not stated) in this test?
no (0)

Can you look up the reported call for CCCOC(=O)CCC(NC(=O)c1ccc(Nc2nc3ccccc3nc2-c2cccs2)cc1)C(=O)OCCC (configuration not stated) for me?
no (0)
